- Test system: IGROV-1 (Ovarian Carcinoma)
- measurement.protocol: Bliss excess, mean over the matrix (fraction); higher = more synergy
property: Bliss excess

Record summary for CC(=O)Nc1cccc(-n2c(=O)n(C3CC3)c(=O)c3c(Nc4ccc(I)cc4F)n(C)c(=O)c(C)c32)c1 [Trametinib] + Cc1nc(-c2cn3c(n2)-c2ccc(-c4cnn(C(C)(C)C(N)=O)c4)cc2OCC3)n(C(C)C)n1 [Taselisib] (first compound max 1 µM, 7x7, partner max 10 µM) : reported Bliss excess = -0.0339

Lab note: measured Bliss excess of CC(=O)c1c(C)c2cnc(Nc3ccc(N4CCNCC4)cn3)nc2n(C2CCCC2)c1=O [Palbociclib] + Cc1c2c(nn1C)CSCc1cc(n(C)n1)CSc1cc(c3ccccc3c1)OCCCc1c(C(=O)O)n(C)c3c-2c(Cl)ccc13 [AZD5991] (first compound max 10 µM, 7x7, partner max 1 µM) was 0.0122

Memo: CN(CCO)CC[C@H](CSc1ccccc1)Nc1ccc(S(=O)(=O)NC(=O)c2ccc(N3CCC([C@@H](O)c4ccccc4-c4ccc(Cl)cc4)CC3)cc2)cc1S(=O)(=O)C(F)(F)F [AZD4320] + CN(C)CCCOc1ccc(-c2ccc3ncc4c(c3c2)n(C2CCOCC2)c(=O)n4C)cn1 [AZD0156] (first compound max 1 µM, 7x7, partner max 1 µM) , reported Bliss excess: -0.0848

###

Reported values of combination Emax for individual entries
- Tested on: L-363 (Plasma Cell Myeloma)
- measurement.protocol: combination Emax (second highest fraction inhibited in the dose matrix, 72 h); higher = more inhibition; extreme values may be limits of the assay

C[C@@H]1COCCN1c1cc(C2([S@](C)(=N)=O)CC2)nc(-c2ccnc3[nH]ccc23)n1 [AZD6738] + Nc1ccn([C@@H]2O[C@H](CO)[C@@H](O)C2(F)F)c(=O)n1 [Gemcitabine] (first compound max 10 µM, 7x7, partner max 0.3 µM); 0.941
C[C@@H](c1ccc2nccn2c1)n1nnc2ncc(-c3cnn(C)c3)nc21 [Savolitinib] + CC1(C)CCC(CN2CCN(c3ccc(C(=O)NS(=O)(=O)c4ccc(NCC5CCOCC5)c([N+](=O)[O-])c4)c(Oc4cnc5[nH]ccc5c4)c3)CC2)=C(c2ccc(Cl)cc2)C1 [Venetoclax] (first compound max 1 µM, 7x7, partner max 1 µM); 0.0979
CC1(C)CCC(CN2CCN(c3ccc(C(=O)NS(=O)(=O)c4ccc(NCC5CCOCC5)c([N+](=O)[O-])c4)c(Oc4cnc5[nH]ccc5c4)c3)CC2)=C(c2ccc(Cl)cc2)C1 [Venetoclax] + C1CN(CCC1(C(=O)N[C@@H](CCO)C2=CC=C(C=C2)Cl)N)C3=NC=NC4=C3C=CN4 [Capivasertib] (first compound max 1 µM, 7x7, partner max 3 µM); 0.867
Cc1cc2ncnn2cc1Nc1ncc2c(n1)n(C1CCOCC1)c(=O)n2C [AZD7648] + CN(C)CCCOc1ccc(-c2ccc3ncc4c(c3c2)n(C2CCOCC2)c(=O)n4C)cn1 [AZD0156] (first compound max 10 µM, 7x7, partner max 1 µM); 0.393
Cc1c2c(nn1C)CSCc1cc(n(C)n1)CSc1cc(c3ccccc3c1)OCCCc1c(C(=O)O)n(C)c3c-2c(Cl)ccc13 [AZD5991] + C[C@@H]1COCCN1C2=NC(=NC(=C2)C3(CC3)[S@](=N)(=O)C)C4=C5C=CNC5=NC=C4 [AZD6738] (first compound max 1 µM, 7x7, partner max 10 µM); 1

combination Emax for Cc1c2c(nn1C)CSCc1cc(n(C)n1)CSc1cc(c3ccccc3c1)OCCCc1c(C(=O)O)n(C)c3c-2c(Cl)ccc13 [AZD5991] + C1CN(CCC1(C(=O)N[C@@H](CCO)C2=CC=C(C=C2)Cl)N)C3=NC=NC4=C3C=CN4 [Capivasertib] (first compound max 1 µM, 7x7, partner max 3 µM) is 1

Value of combination Emax reported for the compound Cn1cnc2c(F)c(Nc3ccc(Br)cc3Cl)c(C(=O)NOCCO)cc21 [Selumetinib] + C=CCn1c(=O)c2cnc(Nc3ccc(N4CCN(C)CC4)cc3)nc2n1-c1cccc(C(C)(C)O)n1 [AZD1775] (first compound max 10 µM, partner max 1 µM) is 0.924

###

Parameter: Bliss excess. Scope: all listed entries.
- System: SK-MEL-24 (Melanoma)
- measurement.protocol: Bliss excess, mean over the matrix (fraction); higher = more synergy
Keep it simple and answer with nothing but the number.

Study these solved cases before continuing.
Cc1c2c(nn1C)CSCc1cc(n(C)n1)CSc1cc(c3ccccc3c1)OCCCc1c(C(=O)O)n(C)c3c-2c(Cl)ccc13 [AZD5991] + CS(=O)(=O)CCNCc1ccc(-c2ccc3ncnc(Nc4ccc(OCc5cccc(F)c5)c(Cl)c4)c3c2)o1 [Lapatinib] (first compound max 1 µM, 7x7, partner max 10 µM); -0.0651
COc1nnc2ccc(N3CCC(c4ccc(OCCN5CCN(C)C(=O)[C@H]5C)cc4)CC3)nn12 [AZD5153] + C=CCn1c(=O)c2cnc(Nc3ccc(N4CCN(C)CC4)cc3)nc2n1-c1cccc(C(C)(C)O)n1 [AZD1775] (first compound max 1 µM, partner max 1 µM); -0.0421
Cc1c2c(nn1C)CSCc1cc(n(C)n1)CSc1cc(c3ccccc3c1)OCCCc1c(C(=O)O)n(C)c3c-2c(Cl)ccc13 [AZD5991] + CC(=O)O[C@H]1C(=O)[C@@]2(C)[C@H]([C@H](OC(=O)c3ccccc3)[C@]3(O)C[C@H](OC(=O)[C@H](O)[C@@H](NC(=O)c4ccccc4)c4ccccc4)C(C)=C1C3(C)C)[C@]1(OC(C)=O)CO[C@@H]1C[C@@H]2O [Paclitaxel] (first compound max 1 µM, 7x7, partner max 3 µM); -0.0449
COc1nnc2ccc(N3CCC(c4ccc(OCCN5CCN(C)C(=O)[C@H]5C)cc4)CC3)nn12 [AZD5153] + CC1(C)CCC(CN2CCN(c3ccc(C(=O)NS(=O)(=O)c4ccc(NCC5CCOCC5)c([N+](=O)[O-])c4)c(Oc4cnc5[nH]ccc5c4)c3)CC2)=C(c2ccc(Cl)cc2)C1 [Venetoclax] (first compound max 1 µM, 7x7, partner max 1 µM); -0.0685
Cc1cc2ncnn2cc1Nc1ncc2c(n1)n(C1CCOCC1)c(=O)n2C [AZD7648] + C[C@@H]1COCCN1C2=NC(=NC(=C2)C3(CC3)[S@](=N)(=O)C)C4=C5C=CNC5=NC=C4 [AZD6738] (first compound max 10 µM, 7x7, partner max 10 µM); 0.0523

Bliss excess measured on C[C@@H](Nc1cc(F)cc(F)c1)c1cc(C(=O)N(C)C)cc2c(=O)cc(N3CCOCC3)oc12 [AZD8186] + C1CN(CCC1(C(=O)N[C@@H](CCO)C2=CC=C(C=C2)Cl)N)C3=NC=NC4=C3C=CN4 [AZD5363] (first compound max 10 µM, 7x7, partner max 10 µM) = -0.0455

For this compound ( C[C@@H](Oc1cc(-c2cnn(C3CCNCC3)c2)cnc1N)c1c(Cl)ccc(F)c1Cl [Crizotinib] + Cn1cnc2c(F)c(Nc3ccc(Br)cc3Cl)c(C(=O)NOCCO)cc21 [Selumetinib] (first compound max 10 µM, 7x7, partner max 10 µM) ), measured Bliss excess is -0.0034

Record COc1cccc(OCCCN)c1-c1cc(Nc2cnc(C#N)cn2)n[nH]1 [Prexasertib] + C[C@@H]1COCCN1C2=NC(=NC(=C2)C3(CC3)[S@](=N)(=O)C)C4=C5C=CNC5=NC=C4 [AZD6738] (first compound max 1 µM, 7x7, partner max 10 µM) , field Bliss excess: -0.0061

Consider Cc1nc(Nc2ncc(C(=O)Nc3c(C)cccc3Cl)s2)cc(N2CCN(CCO)CC2)n1 [Dasatinib] + CC(=O)Nc1cccc(-n2c(=O)n(C3CC3)c(=O)c3c(Nc4ccc(I)cc4F)n(C)c(=O)c(C)c32)c1 [Trametinib] (first compound max 2 µM, 7x7, partner max 1 µM) . Its measured Bliss excess is 0.141

Given item NC1(C(=O)N[C@@H](CCO)c2ccc(Cl)cc2)CCN(c2ncnc3[nH]ccc23)CC1 [Capivasertib] + C[C@@H]1COCCN1C2=NC(=NC(=C2)C3(CC3)[S@](=N)(=O)C)C4=C5C=CNC5=NC=C4 [AZD6738] (first compound max 10 µM, 7x7, partner max 10 µM) , the value recorded as its Bliss excess is -0.027

Bliss excess recorded for this compound, CN(CCO)CC[C@H](CSc1ccccc1)Nc1ccc(S(=O)(=O)NC(=O)c2ccc(N3CCC([C@@H](O)c4ccccc4-c4ccc(Cl)cc4)CC3)cc2)cc1S(=O)(=O)C(F)(F)F [AZD4320] + C1CN(CCC1(C(=O)N[C@@H](CCO)C2=CC=C(C=C2)Cl)N)C3=NC=NC4=C3C=CN4 [Capivasertib] (first compound max 1 µM, 7x7, partner max 3 µM) , is -0.0428

Entry under test: Cc1cc2ncnn2cc1Nc1ncc2c(n1)n(C1CCOCC1)c(=O)n2C [AZD7648] + CCN(CCO)CCCOc1ccc2c(Nc3cc(CC(=O)Nc4cccc(F)c4)[nH]n3)ncnc2c1 [AZD2811] (first compound max 10 µM, 7x7, partner max 1 µM) . Its Bliss excess was -0.0121

// Bliss excess value for CS(=O)(=O)CCNCc1ccc(-c2ccc3ncnc(Nc4ccc(OCc5cccc(F)c5)c(Cl)c4)c3c2)o1 [Lapatinib] + NC1(c2ccc(-c3nc4ccn5c(=O)[nH]nc5c4cc3-c3ccccc3)cc2)CCC1 [MK-2206] (first compound max 10 µM, 7x7, partner max 10 µM) : -0.0572

These data points were gathered from the supplement of paper PMC11061612.
